species on record: Rattus norvegicus; assay: DrugMatrix - Regimen: Daily Repeat; assay type: toxicity, organism-based, Sprague-Dawley; design: regimen Daily Repeat, gender Male, age 6-8 weeks; conditions: in vivo, po, 0 mg/kg, 120 h, tissue Plasma, route oral GAVAGE, dose level Control, time 5 day, […]
Threshold 0.2 mg/dL: CREATININE strictly smaller gives YES, otherwise NO.

>>> label("c1ccc2c(c1)Nc1ccccc1S2")
"YES"
>>> label("CC#C[C@]1(O)CC[C@H]2[C@@H]3CCC4=CC(=O)CCC4=C3[C@@H](c3ccc(N(C)C)cc3)C[C@@]21C")
"YES"
>>> label("CCC(C)(C)C(=O)O[C@H]1C[C@@H](C)C=C2C=C[C@H](C)[C@H](CC[C@@H]3C[C@@H](O)CC(=O)O3)[C@H]21")
"YES"
>>> label("O=C(Nc1ccc(Cl)c(Cl)c1)c1cc(Cl)cc(Cl)c1O [3,3',4',5-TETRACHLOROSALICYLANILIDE]")
"NO"
>>> label("CS(=O)(=O)c1ccc(C2=C(c3ccccc3)C(=O)OC2)cc1")
"YES"
>>> label("CC(C)(c1ccc(O)cc1)c1ccc(O)cc1")
"NO"

Provenance of the data: ChEMBL document CHEMBL3885881
